B1: TPR 5TU (parent)
chain: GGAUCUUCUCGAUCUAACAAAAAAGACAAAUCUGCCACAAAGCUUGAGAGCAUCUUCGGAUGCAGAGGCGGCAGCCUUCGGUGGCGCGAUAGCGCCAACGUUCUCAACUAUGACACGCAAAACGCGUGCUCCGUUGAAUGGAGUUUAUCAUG

Variants of: B1
measurement protocol: polymerase ribozyme fitness, log enrichment relative to wild type (log ratio); higher = more active; in vitro selection for triplet polymerase activity
Variants at the floor of the assay were thinned out.
Quick reference for polymerase ribozyme fitness (log ratio) among some variants
Write the value as a bare number.

Guide cases for polymerase ribozyme fitness (log ratio), answers given:
{"mutant label": "U7C A12G C96U", "polymerase ribozyme fitness (log ratio)": -2.17}
{"mutant label": "U6C A37C C93U", "polymerase ribozyme fitness (log ratio)": -3.12}
{"mutant label": "C75U U139A G140C", "polymerase ribozyme fitness (log ratio)": -4.11}

Let us examine a further case.
Noted for C63U A119U U144C : its polymerase ribozyme fitness (log ratio) reads -0.319
